system: Erwinia amylovora; assay: Antibacterial activity against Erwinia amylovora by disk diffusion assay; assay type: functional
recorded endpoint: MIC

Look up MIC: NC(=O)NC[C@H](NC(=O)[C@@H](O)[C@H](O)[C@H](N)CO)C(N)=O > 128 µg/mL

Query NC(=O)NC[C@@H](NC(=O)[C@H](O)[C@@H](O)[C@@H](N)[C@@H](O)C[C@@H](O)[C@@H](N)CO)C(N)=O next > 128 µg/mL

Try NC(=O)NC[C@H](NC(=O)[C@H](O)[C@@H](O)[C@@H](N)[C@@H](O)C[C@@H](O)[C@@H](N)CO)C(N)=O next. > 128 µg/mL

And for N[C@H](CO)[C@@H](O)C[C@H](O)[C@H](N)CO ? > 128 µg/mL
